- Tested on: Enterovirus
- ASSAY SUMMARY: Antiviral activity against Enterovirus
- Format: functional, organism-based
READOUT TYPE: pIC50
To interpret pIC50, take it as minus log10 of a concentration measured in moles per litre.

The measured pIC50 associated with CCO/N=C/c1ccc(OCCC2CCN(c3ccc(Cl)nn3)CC2)cc1 reads 9.00

====

- Test system: Hepatitis C virus
- ASSAY SUMMARY: Antiviral activity against Hepatitis C virus
- Type: functional, organism-based, Hepacivirus hominis
- SETTINGS: Hepatitis C virus
Starred links: 1 amine or outer side, 2 acyl side, 3 side chain; linkers in the order of their positions; H or OH if unused. Non-standard residues stand in square brackets, D forms with d. Residues, ends and D or L forms follow the SMILES beside them. *: point of attachment. NH(1S-phenylpropyl) = CC[C@H](N*)c1ccccc1; Hyp = O=C(O)[C@@H]1C[C@@H](O)CN1; azaNva = CCCN(N[*:1])C(=O)[*:2]; Bn = c1ccc(C*)cc1
Each entry below lists one item and its recorded log10(IC50) value.
The figures below represent log10 of IC50, where IC50 is stated in nM.

# count of solved cases: 6
CCCC1(CC(=O)O)OCCc2c1[nH]c1c(C)cc(F)c(C#N)c21 (centres undefined)
2.08
COc1ccc2c(O[C@@H]3C[C@H]4C(=O)N[C@]5(C(=O)O)C[C@H]5/C=C\CCCCC[C@H](NC(=O)N[C@H](C)C(C)(C)C)C(=O)N4C3)cc(-c3csc(NC(C)=O)n3)nc2c1
0.15
CCCN(NC(=O)[C@@H]1C[C@@H](OCc2ccccc2)CN1C(=O)[C@@H](NC(=O)[C@@H](NC(=O)[C@@H](CCC(=O)O)NC(=O)[C@H](CC(=O)O)NC(C)=O)[C@@H](C)CC)C(C)C)C(=O)N[C@@H](CC)c1ccccc1 (Ac-D[dE]IV[Hyp](Bn)[azaNva]-{NH(1S-phenylpropyl)})
2.64
O=C(O)[C@H](Cc1ccccc1)N(Cc1cccc(F)c1)C(=O)c1ccc(Cl)cc1Cl
3.51
COc1ccc2c(O[C@@H]3C[C@H]4C(=O)N[C@]5(C(=O)O)C[C@H]5/C=C\CCCCC[C@H](NC(=O)OC5CCCC5)C(=O)N4C3)cc(-c3csc(NC(C)=O)n3)nc2c1
0.40
COc1ccc2c(O[C@@H]3C[C@H]4C(=O)N[C@]5(C(=O)O)C[C@H]5/C=C\CCCCC[C@H](NC(=O)OC(C)(C)C)C(=O)N4C3)cc(-c3csc(NC(C)=O)n3)nc2c1
0.68

Short answer on Hepatitis C virus for COc1ccc2c(O[C@@H]3C[C@H]4C(=O)N[C@]5(C(=O)O)C[C@H]5/C=C\CCCCC[C@H](NC(=O)OC5CCCC5)C(=O)N4C3)cc(-n3ccc(C)n3)nc2c1 , log10(IC50): 0.34

Short answer on Hepatitis C virus for O=C(O)C(=O)CC(=O)c1cccc(NS(=O)(=O)c2ccccc2)c1 , log10(IC50): 4.20

Short answer on Hepatitis C virus for COc1ccc2c(O[C@@H]3C[C@H]4C(=O)N[C@]5(C(=O)O)C[C@H]5/C=C\CCCCC[C@H](NC(=O)OC(C)(C)C)C(=O)N4C3)cc(-n3cccc3)nc2c1 , log10(IC50): 0.71
